Data provenance: patent US12459939B2

- test.summary: In vivo pharmacokinetics in mice
- reported.conditions: male, Balb c, mouse, plasma, po, gavage, 5 mg/kg
molecules and their reported Cmax

CCNC(=O)c1cc2c(=O)n(C)cc(-c3cc(C(C)(C)O)ccc3Oc3c(C)cc(F)cc3C)c2[nH]1 [compound 1, reference compound] :: > 1.5 µM

We now examine a further molecule.
For the molecule Cc1cc(F)cc(C)c1Oc1ccc(C(C)(C)O)cc1-c1cn(C)c(=O)c2cc(C(=O)NC3CC(F)(F)C3)[nH]c12 [Embodiment 18] , what Cmax is on record?
> 1.5 µM

###

- test.summary: In vivo pharmacokinetics in beagle dogs
- reported.conditions: dog, plasma, po, gavage, 10 mg/kg
measure: half-life

CCNC(=O)c1cc2c(=O)n(C)cc(-c3cc(C(C)(C)O)ccc3Oc3c(C)cc(F)cc3C)c2[nH]1 [compound 1, reference compound] :: > 2 h

Which half-life is reported for this molecule? `Cc1cc(F)cc(C)c1Oc1ccc(C(C)(C)O)cc1-c1cn(C)c(=O)c2cc(C(=O)NC3CC(F)(F)C3)[nH]c12`
> 2 h

###

- Tested on: MV4-11 cells
- test.summary: Inhibition of proliferation of MV4-11 cells (CellTiter-Glo)
- Type: cell-based
- reported.conditions: Homo sapiens, 72 h
List of pIC50 values.
Please note pIC50 is a logarithmic value: minus log10 of concentration in mol/L. Answer with that number alone.

Worked examples, 3 molecules total:
Cc1cc(F)cc(C)c1Oc1ccc(C(C)(C)O)cc1-c1cn(C)c(=O)c2cc(C(=O)NC3CC(F)(F)C3)[nH]c12 :: 7.97
Cc1cc(F)cc(C)c1Oc1ccc(C(C)(C)O)cc1-c1cn(C)c(=O)c2cc(C(=O)N3CCC3)[nH]c12 :: 6.60
Cc1cc(F)cc(C)c1Oc1ccc(C(C)(C)O)cc1-c1cn(C)c(=O)c2cc(C(=O)NCC(F)(F)F)[nH]c12 :: 7.50

Any idea what its pIC50 is? The molecule is `Cc1cc(F)cc(C)c1Oc1ccc(C(C)(C)O)cc1-c1cn(C)c(=O)c2cc(C(=O)N3CC(F)(F)C3)[nH]c12`
6.83

Can you handle Cc1cc(F)cc(C)c1Oc1ccc(C(C)(C)O)cc1-c1cn(C)c(=O)c2cc(C(=O)NCCCOCCOCCOCCCNc3cccc4c3C(=O)N(C3CCC(=O)NC3=O)C4=O)[nH]c12 (centres unmarked) next?
7.99

Also, `Cc1cc(F)cc(C)c1Oc1ccc(C(C)(C)O)cc1-c1cn(C)c(=O)c2cc(C(=O)NC(C)C)[nH]c12` please.
8.18

Now the molecule `Cc1cc(F)cc(C)c1Oc1ccc(C(C)(C)O)cc1-c1cn(C)c(=O)c2cc(C(=O)NCC3CC3)[nH]c12`
7.90

Request: `COCCNC(=O)c1cc2c(=O)n(C)cc(-c3cc(C(C)(C)O)ccc3Oc3c(C)cc(F)cc3C)c2[nH]1`
7.70

Try `Cc1cc(F)cc(C)c1Oc1ccc(C(C)(C)O)cc1-c1cn(C)c(=O)c2cc(C(=O)NC3CC3)[nH]c12` next.
8.10

Now consider `CCNC(=O)c1cc2c(=O)n(C)cc(-c3cc(S(C)(=O)=O)cc4c3OC(C)(C)C(=O)N4C)c2[nH]1` .
7.19

Now give it for `Cc1cc(F)cc(C)c1Oc1ccc(C(C)(C)O)cc1-c1cn(C)c(=O)c2cc(C(=O)NCC#N)[nH]c12` too.
7.48

// same read-out, input: CCNC(=O)c1cc2c(-c3cc(C(C)(C)O)ccc3Oc3c(C)cc(F)cc3C)cn(C)c(=O)c2[nH]1 [compound 1, reference compound]
7.49

###

- target.or.system: BRD4-BD1 (Homo sapiens, UniProt O60885)
- Construct: purchased ReactionBiologyCorp; (RBC)
- test.summary: BRD4 AlphaScreen determination (BD1)
- Type: binding
- reported.conditions: AlphaScreen, protein binding inhibition; read-out: BRD4-BD1 IC50
- Experimental: (1) 1× Assay buffer was prepared according to the kit requirements of ReactionBiologyCorp. (RBC). […] The solution was gradient diluted to the corresponding 1000-fold final concentration in a 384-well Source plate, and then 20 nL of the solution was transferred to the 384-well reaction plate with Echo550 to be measured. […] (8) Reading with EnVision. […]
measure: pIC50
pIC50 here is simply -log10 of the concentration when that concentration is written in mol/L.

# annotated cases, reported pIC50 shown
Cc1cc(F)cc(C)c1Oc1ccc(C(C)(C)O)cc1-c1cn(C)c(=O)c2cc(C(=O)NCC(F)(F)F)[nH]c12 :: 6.66
Cc1cc(F)cc(C)c1Oc1ccc(C(C)(C)O)cc1-c1cn(C)c(=O)c2cc(C(=O)NCC(F)F)[nH]c12 :: 6.96

Under BRD4-BD1 (Homo sapiens, UniProt O60885): pIC50 value of `Cc1cc(F)cc(C)c1Oc1ccc(C(C)(C)O)cc1-c1cn(C)c(=O)c2cc(C(=O)NC3CC3)[nH]c12` ?
7.03

###

- test.summary: In vivo pharmacokinetics in beagle dogs
- reported.conditions: dog, plasma, po, gavage, 10 mg/kg
measure: AUC

CCNC(=O)c1cc2c(=O)n(C)cc(-c3cc(C(C)(C)O)ccc3Oc3c(C)cc(F)cc3C)c2[nH]1 [compound 1, reference compound] :: > 15 µM·h

Look up AUC for this molecule: `Cc1cc(F)cc(C)c1Oc1ccc(C(C)(C)O)cc1-c1cn(C)c(=O)c2cc(C(=O)NC3CC(F)(F)C3)[nH]c12`
> 15 µM·h

###

- target.or.system: BRD4-BD2 (Homo sapiens, UniProt O60885)
- Construct: purchased ReactionBiologyCorp; (RBC)
- test.summary: BRD4 AlphaScreen determination (BD2)
- Format: binding
- reported.conditions: AlphaScreen, protein binding inhibition; read-out: BRD4-BD2 IC50
measure: pIC50
The meaning of pIC50 here: minus log10 of the concentration in molar units.

See these solved cases before continuing.
CCNC(=O)c1cc2c(=O)n(C)cc(-c3cc(S(C)(=O)=O)cc4c3OC(C)(C)C(=O)N4C)c2[nH]1 [Embodiment 2] :: 8.92
Cc1cc(F)cc(C)c1Oc1ccc(C(C)(C)O)cc1-c1cn(C)c(=O)c2cc(C(=O)N3CC(F)(F)C3)[nH]c12 [Embodiment 19] :: 8.55

What reported pIC50 corresponds to Cc1cc(F)cc(C)c1Oc1ccc(C(C)(C)O)cc1-c1cn(C)c(=O)c2cc(C(=O)NCCS(C)(=O)=O)[nH]c12 [Embodiment 10] on BRD4-BD2 (Homo sapiens, UniProt O60885)?
9.16

###

- target.or.system: CYP2C8 (Homo sapiens, UniProt P10632)
- Sequence (P10632 whole entry): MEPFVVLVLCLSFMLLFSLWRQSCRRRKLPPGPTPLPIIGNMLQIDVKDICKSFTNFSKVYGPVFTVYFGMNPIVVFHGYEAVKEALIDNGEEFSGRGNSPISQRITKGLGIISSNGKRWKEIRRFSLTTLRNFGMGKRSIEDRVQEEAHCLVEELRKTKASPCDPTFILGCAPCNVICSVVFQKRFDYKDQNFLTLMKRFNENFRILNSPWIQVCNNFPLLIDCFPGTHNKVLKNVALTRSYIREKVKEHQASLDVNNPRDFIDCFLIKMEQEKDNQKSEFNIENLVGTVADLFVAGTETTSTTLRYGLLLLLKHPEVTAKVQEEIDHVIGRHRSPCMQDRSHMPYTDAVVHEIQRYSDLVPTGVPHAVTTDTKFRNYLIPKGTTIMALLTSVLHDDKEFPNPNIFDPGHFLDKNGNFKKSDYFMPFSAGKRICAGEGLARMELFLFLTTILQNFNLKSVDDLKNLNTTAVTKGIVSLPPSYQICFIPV
- test.summary: Direct inhibition test (DI test) in human liver microsomes, CYP2C8
- Format: in vitro ADME
- reported.conditions: read-out: inhibitory IC50 on CYP 2C8
measure: IC50 at 20 min

CCNC(=O)c1cc2c(=O)n(C)cc(-c3cc(C(C)(C)O)ccc3Oc3c(C)cc(F)cc3C)c2[nH]1 [compound 1, reference compound] :: > 15 µM

Switching to the query record.
Look at this compound and give its reported IC50 at 20 min. `Cc1cc(F)cc(C)c1Oc1ccc(C(C)(C)O)cc1-c1cn(C)c(=O)c2cc(C(=O)NC3CC(F)(F)C3)[nH]c12`
> 15 µM

###

- test.summary: Metabolic stability in rat liver microsomes
- Assay type: in vitro ADME
- reported.conditions: liver microsomes 0.5 mg/mL, NADPH, 1 μM compound, read-out: Rat microsomal T1/2
measure: half-life at 1 μM (h)
// units = h; emit number, no label

Take a look at these entries with their results.
CCNC(=O)c1cc2c(=O)n(C)cc(-c3cc(C(C)(C)O)ccc3Oc3c(C)cc(F)cc3C)c2[nH]1 :: 2.8
Cc1cc(F)cc(C)c1Oc1ccc(C(C)(C)O)cc1-c1cn(C)c(=O)c2cc(C(=O)NCC(F)F)[nH]c12 :: 1.28
CCNC(=O)c1cc2c(-c3cc(C(C)(C)O)ccc3Oc3c(C)cc(F)cc3C)cn(C)c(=O)c2[nH]1 [compound 1, reference compound] :: 1.03

Request the reported half-life at 1 μM associated with `Cc1cc(F)cc(C)c1Oc1ccc(C(C)(C)O)cc1-c1cn(C)c(=O)c2cc(C(=O)NC3CC(F)(F)C3)[nH]c12`
1.38

###

pIC50: −log10 of the molar value.
Entries with reported pIC50 on CYP3A4 (Homo sapiens, UniProt P08684)
Sequence (P08684 whole entry): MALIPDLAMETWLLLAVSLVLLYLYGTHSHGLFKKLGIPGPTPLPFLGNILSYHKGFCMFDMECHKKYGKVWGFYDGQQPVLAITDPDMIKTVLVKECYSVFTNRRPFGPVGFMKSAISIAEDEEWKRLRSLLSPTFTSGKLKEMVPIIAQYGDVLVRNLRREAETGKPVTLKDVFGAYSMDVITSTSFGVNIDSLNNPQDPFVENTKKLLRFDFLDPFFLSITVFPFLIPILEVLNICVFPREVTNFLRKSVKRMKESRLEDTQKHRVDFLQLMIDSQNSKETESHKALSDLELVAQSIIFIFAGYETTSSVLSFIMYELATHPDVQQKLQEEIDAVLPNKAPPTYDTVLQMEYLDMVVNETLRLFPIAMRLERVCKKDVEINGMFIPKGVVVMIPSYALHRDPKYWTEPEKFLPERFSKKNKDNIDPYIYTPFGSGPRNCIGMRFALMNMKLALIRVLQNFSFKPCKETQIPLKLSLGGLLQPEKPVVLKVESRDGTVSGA

CCNC(=O)c1cc2c(=O)n(C)cc(-c3cc(C(C)(C)O)ccc3Oc3c(C)cc(F)cc3C)c2[nH]1 [compound 1, reference compound] :: < 4.82

In the following, a different compound is considered.
For the compound shown here, Cc1cc(F)cc(C)c1Oc1ccc(C(C)(C)O)cc1-c1cn(C)c(=O)c2cc(C(=O)NC3CC(F)(F)C3)[nH]c12 [Embodiment 18] , give the reported pIC50.
< 4.82
